experiment: Cytotoxicity in the CPE assay (XTT, 50% reduction in cell viability); conditions: human, CEM-SS cells
No end group written: not given here.
endpoint: CC50 at 6 days (µM)
State just the number; it will be interpreted in µM.

# CC50 at 6 days of SKEKIGKEFKRIVQRIKDFLR [SK-21] = 22.5

---

tested on: HIV-1IIIB; assay: microbe, parasite or virus in culture; details: Table 5; BMAP-27-derived peptides, CEM-SS cells
No end group written: not given here.
For each record, write down the corresponding pEC50.
The meaning of pEC50 here: minus log10 of the concentration in molar units.

# pEC50 of GRFKRFRKPFKKLFKKIS-NH2 [BMAP-18P9] = 5.49

# pEC50 of GRFKRFRKKFKKLFKKIS-NH2 [BMAP-18] = 6.46
